B1: Hairpin Ribozyme (parent)
chain: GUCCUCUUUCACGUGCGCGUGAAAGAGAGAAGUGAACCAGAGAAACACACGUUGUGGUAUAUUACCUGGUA

- Variants of: B1
- experimentDescription: self-cleavage, relative activity (ratio to wild type); higher = more cleavage; co-transcriptional
measurementType: self-cleavage
Note: the reply should be a number with no unit written.

mutantId	self-cleavage
G1U U5G	0.194
U55C A59G	0.0716
A43U G69A	0.119
G13A U20C	0.902
C4G C6A	0.195
A26G C48U	0.18

Entry U14C A23C : reported self-cleavage = ? 0.693

Entry G68C G69C : reported self-cleavage = ? 0.206

Entry C50G U55A : reported self-cleavage = ? 0.153

Entry C37A A45C : reported self-cleavage = ? 0.189

Entry U58C U67G : reported self-cleavage = ? 0.241

Entry G13C U52C : reported self-cleavage = ? 0.646

Entry C16U U33A : reported self-cleavage = ? 0.0953

Entry G1A U58C : reported self-cleavage = ? 0.216

Entry C37U U70G : reported self-cleavage = ? 0.505

Entry U14G U33A : reported self-cleavage = ? 0.116

Entry A24U A30U : reported self-cleavage = ? 0.168

Entry A11G A28U : reported self-cleavage = ? 0.447

Entry C18A A45U : reported self-cleavage = ? 0.11

Entry A49U A71G : reported self-cleavage = ? 0.221

Entry G17A U55A : reported self-cleavage = ? 0.0892

Entry A23G U52A : reported self-cleavage = ? 0.899

Entry U5G C50U : reported self-cleavage = ? 0.147

Entry U20A A61G : reported self-cleavage = ? 0.11

Entry C16G G51C : reported self-cleavage = ? 0.564

Entry A11C C12U : reported self-cleavage = ? 0.766

// data source = the RNAGym collection of RNA variant scans (doi:10.7554/elife.80360)
